assay: E1/2 value related to the saturated calomal electrode.; format: ADME; set-up: unit not given here
// reported E1/2 for each item listed
endpoint_name: E1/2

compound="COC12[C@@H]3N[C@@H]3CN1C1=C(C(=O)C(N3CCCC3)=C(C)C1=O)[C@@H]2COC(N)=O (stereo partly specified)" reported_measurement=0.35
compound="COC12[C@@H]3N[C@@H]3CN1C1=C(C(=O)C(N3CCC(O)(O)CC3)=C(C)C1=O)[C@@H]2COC(N)=O (stereo partly specified)" reported_measurement=0.28
compound="COC12[C@@H]3N[C@@H]3CN1C1=C(C(=O)C(N3CCC(N4CCCCC4)CC3)=C(C)C1=O)[C@@H]2COC(N)=O (stereo partly specified)" reported_measurement=0.28
compound="COC12[C@@H]3N[C@@H]3CN1C1=C(C(=O)C(N3CCOCC3)=C(C)C1=O)[C@@H]2COC(N)=O (stereo partly specified)" reported_measurement=0.39
compound="COC12[C@@H]3N[C@@H]3CN1C1=C(C(=O)C(N3CC3C)=C(C)C1=O)[C@@H]2COC(N)=O (stereo partly specified)" reported_measurement=0.32
compound="CCN(CC)C1=C(C)C(=O)C2=C(C1=O)[C@H](COC(N)=O)C1(OC)[C@@H]3N[C@@H]3CN21 (stereo partly specified)" reported_measurement=0.26

* * *

system: P388; test: Minimum effective dose required for antitumor activity against P-388 murine leukemia cells in mice.; format: functional; details: Mus musculus, read-out: MED
// reported minimal effective dose for each item listed
endpoint_name: minimal effective dose

compound="COC12[C@@H]3N[C@@H]3CN1C1=C(C(=O)C(N3CCC(O)(O)CC3)=C(C)C1=O)[C@@H]2COC(N)=O (some centres not stated)" experimental_system=P388 reported_measurement="0.2 mg/kg"
compound="CCN(CC)C1=C(C)C(=O)C2=C(C1=O)[C@H](COC(N)=O)C1(OC)[C@@H]3N[C@@H]3CN21 (some centres not stated)" experimental_system=P388 reported_measurement="1.6 mg/kg"
compound="COC12[C@@H]3N[C@@H]3CN1C1=C(C(=O)C(N3CC3C(N)=O)=C(C)C1=O)[C@@H]2COC(N)=O (some centres not stated)" experimental_system=P388 reported_measurement="0.8 mg/kg"
compound="COC12[C@@H]3N[C@@H]3CN1C1=C(C(=O)C(N3CC3C)=C(C)C1=O)[C@@H]2COC(N)=O (some centres not stated)" experimental_system=P388 reported_measurement="0.1 mg/kg"
compound="COC12[C@@H]3N[C@@H]3CN1C1=C(C(=O)C(N3CCOCC3)=C(C)C1=O)[C@@H]2COC(N)=O (some centres not stated)" experimental_system=P388 reported_measurement="0.4 mg/kg"
compound="COC12[C@@H]3N[C@@H]3CN1C1=C(C(=O)C(N3CC3C#N)=C(C)C1=O)[C@@H]2COC(N)=O (some centres not stated)" experimental_system=P388 reported_measurement="0.2 mg/kg"
compound="COC12[C@@H]3N[C@@H]3CN1C1=C(C(=O)C(N3CC3c3ccccc3)=C(C)C1=O)[C@@H]2COC(N)=O (some centres not stated)" experimental_system=P388 reported_measurement="0.2 mg/kg"

* * *

// reported T/C for each item listed
tested on: P388; assay: Maximum % T/C against P-388 murine leukemia cells in mice.; format: functional, Mus musculus
endpoint_name: T/C (%)

compound="COC12[C@@H]3N[C@@H]3CN1C1=C(C(=O)C(N(C)C)=C(C)C1=O)[C@@H]2COC(N)=O (some centres undefined)" unit_symbol=% reported_measurement=238
compound="COC12[C@@H]3N[C@@H]3CN1C1=C(C(=O)C(N3CCN(C=O)CC3)=C(C)C1=O)[C@@H]2COC(N)=O (some centres undefined)" unit_symbol=% reported_measurement=294
compound="CCN(CC)C1=C(C)C(=O)C2=C(C1=O)[C@H](COC(N)=O)C1(OC)[C@@H]3N[C@@H]3CN21 (some centres undefined)" unit_symbol=% reported_measurement=222
compound="COC12[C@@H]3N[C@@H]3CN1C1=C(C(=O)C(N3CCSCC3)=C(C)C1=O)[C@@H]2COC(N)=O (some centres undefined)" unit_symbol=% reported_measurement=211
